Reported cell viability (log2) values follow for various compounds
Tested on: A673/TR/shEF
Assay: cell viability (LOESS-normalised, relative to median of negative controls) (log2 ratio); higher = more viable cells (less compound effect), active = hit call of the paper (over 3 MAD below the median)
Conditions: 2.8 µM; library screen: screen3; EWS-FLI1 expression: low (doxycycline-induced shRNA knockdown); treatment time: 72 h
Among all 3,200 compounds or so, about 300 (9.4%) showed activity. For the sample, actives were picked, then their nearest neighbours and some compounds at random.
Form field (numeric): enter value without unit.

CS(=O)(=O)CCNCc1ccc(-c2ccc3ncnc(Nc4ccc(OCc5cccc(F)c5)c(Cl)c4)c3c2)o1; 0.113
C=CC(=O)Nc1cc2c(Nc3ccc(F)c(Cl)c3)ncnc2cc1OCCCN1CCOCC1; -0.0776
COc1cc2ncnc(Nc3ccc(F)c(Cl)c3)c2cc1OCCCN1CCOCC1; 0.0991
CN(C)C/C=C/C(=O)Nc1cc2c(Nc3ccc(F)c(Cl)c3)ncnc2cc1O[C@H]1CCOC1; -0.0241
C[C@H](Cn1cnc2c(N)ncnc21)OCP(=O)(O)O; 0.0269
COc1cc2c(Nc3ccc(Br)cc3F)ncnc2cc1OCC1CCN(C)CC1; 0.00456
CC(C)(C)C(=O)OCOP(=O)(COCCn1cnc2c(N)ncnc21)OCOC(=O)C(C)(C)C; -0.0209
COc1cc2c(N3CCN(C(=O)Nc4ccc(OC(C)C)cc4)CC3)ncnc2cc1OCCCN1CCCCC1; 0.0175
O=c1[nH]cc(F)c(=O)[nH]1; 0.018

Continue with the compound presented below.
Lookup: Check the records and state cell viability (log2) for CCC1=C[C@@H]2CN(C1)Cc1c([nH]c3ccccc13)[C@@](C(=O)OC)(c1cc3c(cc1OC)N(C)[C@H]1[C@@](O)(C(=O)OC)[C@H](OC(C)=O)[C@]4(CC)C=CCN5CC[C@]31[C@@H]54)C2
Found: -0.798

Reference for the values: the supplement of paper PMC6089552
